Values compiled from PubChem BioAssay (NCATS).

Assay: Quantitative High-Throughput drug screen in 47 multiple myeloma cell lines against the NCATS MIPE library collection: Karpas417_ECACC cell viability assay (AID 1918961)
Settings: Karpas417 myeloma viability, CellTiter-Glo ATP luminescence, 48 h
Results filed as inconclusive are left out. Active and inactive are the calls of the source. Calls come from the whole dose curve; as a rule, active = well fitted cell-killing curve with a large enough effect; inconclusive = small, poorly fitted or top-dose-only effect, or effect the other way; inactive = no such curve, though single readings can be large or run the other way.
# valid calls are active, inactive; nothing else

Task: Answer briefly: the call reported for Nc1ccn([C@H]2CC[C@@H](CO)O2)c(=O)n1 in this assay.
Result: inactive

Task: Answer briefly: the call reported for CC[C@@]1(O)C(=O)OCc2c1cc1n(c2=O)Cc2cc3c(CN(C)C)c(O)ccc3nc2-1 in this assay.
Result: active

Task: Answer briefly: the call reported for CC12CC3CC(C)(C1)CC(N)(C3)C2 in this assay.
Result: inactive

Task: Answer briefly: the call reported for COc1ccc(C2CNC(=O)C2)cc1OC1CCCC1 (stereo unspecified) in this assay.
Result: inactive

Task: Answer briefly: the call reported for CC(C)NCC(O)COc1ccc(CCOCC2CC2)cc1 (stereo unspecified) in this assay.
Result: inactive

Task: Answer briefly: the call reported for O=C(Nc1ccc([N+](=O)[O-])cc1Cl)c1cc(Cl)ccc1O in this assay.
Result: active
